Recorded MIC for the following compounds
# Tested on: linezolid-resistant MDR S. epidermidis (LR-MDRSE) isolates
# TEST_DESCRIPTION: microbe, parasite or virus in culture
# Type: cell-based, Staphylococcus epidermidis
# CONDITION: Staphylococcus epidermidis, 576 h

Take a look at these entries with their results.
[[record]]
compound = "C[C@@H]1O[C@@H]1P(=O)(O)O"
result = "> 64 µg/mL"

[[record]]
compound = "CC(=O)NC[C@H]1CN(c2ccc(N3CCOCC3)c(F)c2)C(=O)O1"
result = "> 4 µg/mL"

[[record]]
compound = "CO[C@H]1/C=C/O[C@@]2(C)Oc3c(C)c(O)c4c(O)c(c(/C=N/N5CCN(C)CC5)c(O)c4c3C2=O)NC(=O)/C(C)=C\\C=C\\[C@H](C)[C@H](O)[C@@H](C)[C@@H](O)[C@@H](C)[C@H](OC(C)=O)[C@@H]1C"
result = "> 2 µg/mL"

[[record]]
compound = "CNC(C)C1CCC(N)C(OC2C(N)CC(N)C(OC3OCC(C)(O)C(NC)C3O)C2O)O1 (stereo not shown)"
result = "> 8 µg/mL"

[[record]]
compound = "CC1COc2c(N3CCN(C)CC3)c(F)cc3c(=O)c(C(=O)O)cn1c23 (stereo not shown)"
result = "> 4 µg/mL"

[[record]]
compound = "Cc1onc(-c2ccccc2)c1C(=O)N[C@@H]1C(=O)N2[C@@H]1SC(C)(C)[C@@H]2C(=O)O"
result = "> 2 µg/mL"

[[record]]
compound = "CCC[C@@H]1C[C@@H](C(=O)N[C@@H]([C@H]2O[C@H](SC)[C@H](O)[C@@H](O)[C@H]2O)[C@@H](C)O)N(C)C1"
result = "> 8 µg/mL"

[[record]]
compound = "NC[C@H]1O[C@H](O[C@H]2[C@H](O)[C@@H](O[C@H]3O[C@H](CO)[C@@H](O)[C@H](N)[C@H]3O)[C@H](N)C[C@@H]2N)[C@H](N)C[C@@H]1O"
result = "> 8 µg/mL"

[[record]]
compound = "CC[C@H]1OC(=O)[C@H](C)[C@@H](O[C@H]2C[C@@](C)(OC)[C@@H](O)[C@H](C)O2)[C@H](C)[C@@H](O[C@@H]2O[C@H](C)C[C@H](N(C)C)[C@H]2O)[C@](C)(O)C[C@@H](C)C(=O)[C@H](C)[C@@H](O)[C@]1(C)O"
result = "> 4 µg/mL"


Check linezolid-resistant MDR S. epidermidis (LR-MDRSE) isolates data and give MIC for `CC(=O)O[C@H]1C[C@@]2(C)[C@@H](C[C@@H](O)[C@H]3[C@@]4(C)CC[C@@H](O)[C@@H](C)[C@@H]4CC[C@@]32C)/C1=C(\CCC=C(C)C)C(=O)O` . > 4 µg/mL
